# Experimental System: human TRPA1 (Homo sapiens)
# Sequence (O75762 whole entry): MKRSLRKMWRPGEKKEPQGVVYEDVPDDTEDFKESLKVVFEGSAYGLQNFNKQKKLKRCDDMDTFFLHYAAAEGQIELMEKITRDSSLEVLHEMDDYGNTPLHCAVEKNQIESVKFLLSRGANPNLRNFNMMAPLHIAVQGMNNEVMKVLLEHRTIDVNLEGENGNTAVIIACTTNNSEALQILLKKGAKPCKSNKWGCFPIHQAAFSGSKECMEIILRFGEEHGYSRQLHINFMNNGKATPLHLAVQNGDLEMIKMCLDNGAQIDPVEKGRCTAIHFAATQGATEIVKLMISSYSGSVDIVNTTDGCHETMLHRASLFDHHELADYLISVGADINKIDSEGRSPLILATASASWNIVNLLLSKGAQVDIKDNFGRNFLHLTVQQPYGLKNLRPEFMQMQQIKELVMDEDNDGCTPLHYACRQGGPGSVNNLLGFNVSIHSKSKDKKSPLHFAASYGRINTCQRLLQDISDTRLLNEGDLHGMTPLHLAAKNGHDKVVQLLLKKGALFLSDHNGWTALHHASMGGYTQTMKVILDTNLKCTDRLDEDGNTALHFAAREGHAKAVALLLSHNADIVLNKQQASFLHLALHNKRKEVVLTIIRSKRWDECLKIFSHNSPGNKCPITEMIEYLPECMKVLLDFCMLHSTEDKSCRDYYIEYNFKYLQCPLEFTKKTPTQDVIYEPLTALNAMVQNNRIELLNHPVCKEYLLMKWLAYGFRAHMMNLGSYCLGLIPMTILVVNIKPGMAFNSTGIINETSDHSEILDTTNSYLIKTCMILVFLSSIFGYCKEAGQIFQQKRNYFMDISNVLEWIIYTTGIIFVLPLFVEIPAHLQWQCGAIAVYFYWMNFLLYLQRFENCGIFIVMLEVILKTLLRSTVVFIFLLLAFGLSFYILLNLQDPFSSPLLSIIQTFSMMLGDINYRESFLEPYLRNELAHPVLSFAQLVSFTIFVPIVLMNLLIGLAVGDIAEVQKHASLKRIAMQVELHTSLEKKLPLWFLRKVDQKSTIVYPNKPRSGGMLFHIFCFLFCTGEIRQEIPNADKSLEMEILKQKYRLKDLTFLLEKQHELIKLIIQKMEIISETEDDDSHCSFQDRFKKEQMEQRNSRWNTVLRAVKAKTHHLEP
# Experiment: Ca2+ influx (Calcium 6 fluorescence) in human TRPA1 expressing HEK-293T cells
# Assay type: cell-based
Quantity Measured: EC50 (µM)
Give a bare numeral; the unit µM is implied.

Output EC50 of `c1ccc2[nH]ccc2c1`
88.7

---

# Experimental System: mouse TRPA1 (Mus musculus)
# Construct: expressed in transfected cells; host or cells: HEK-293T
# Experiment: Ca2+ influx (Calcium 6 fluorescence) in mouse Trpa1-expressing HEK-293T cells
# Type: cell-based
Quantity Measured: pEC50
# log scale: pEC50 equals minus log10 of the concentration in mol/L

Output pEC50 of c1ccc2[nH]ccc2c1 [Indole]
3.88

---

# Experimental System: mouse TRPA1 (Mus musculus, UniProt Q8BLA8)
# Sequence (Q8BLA8 whole entry): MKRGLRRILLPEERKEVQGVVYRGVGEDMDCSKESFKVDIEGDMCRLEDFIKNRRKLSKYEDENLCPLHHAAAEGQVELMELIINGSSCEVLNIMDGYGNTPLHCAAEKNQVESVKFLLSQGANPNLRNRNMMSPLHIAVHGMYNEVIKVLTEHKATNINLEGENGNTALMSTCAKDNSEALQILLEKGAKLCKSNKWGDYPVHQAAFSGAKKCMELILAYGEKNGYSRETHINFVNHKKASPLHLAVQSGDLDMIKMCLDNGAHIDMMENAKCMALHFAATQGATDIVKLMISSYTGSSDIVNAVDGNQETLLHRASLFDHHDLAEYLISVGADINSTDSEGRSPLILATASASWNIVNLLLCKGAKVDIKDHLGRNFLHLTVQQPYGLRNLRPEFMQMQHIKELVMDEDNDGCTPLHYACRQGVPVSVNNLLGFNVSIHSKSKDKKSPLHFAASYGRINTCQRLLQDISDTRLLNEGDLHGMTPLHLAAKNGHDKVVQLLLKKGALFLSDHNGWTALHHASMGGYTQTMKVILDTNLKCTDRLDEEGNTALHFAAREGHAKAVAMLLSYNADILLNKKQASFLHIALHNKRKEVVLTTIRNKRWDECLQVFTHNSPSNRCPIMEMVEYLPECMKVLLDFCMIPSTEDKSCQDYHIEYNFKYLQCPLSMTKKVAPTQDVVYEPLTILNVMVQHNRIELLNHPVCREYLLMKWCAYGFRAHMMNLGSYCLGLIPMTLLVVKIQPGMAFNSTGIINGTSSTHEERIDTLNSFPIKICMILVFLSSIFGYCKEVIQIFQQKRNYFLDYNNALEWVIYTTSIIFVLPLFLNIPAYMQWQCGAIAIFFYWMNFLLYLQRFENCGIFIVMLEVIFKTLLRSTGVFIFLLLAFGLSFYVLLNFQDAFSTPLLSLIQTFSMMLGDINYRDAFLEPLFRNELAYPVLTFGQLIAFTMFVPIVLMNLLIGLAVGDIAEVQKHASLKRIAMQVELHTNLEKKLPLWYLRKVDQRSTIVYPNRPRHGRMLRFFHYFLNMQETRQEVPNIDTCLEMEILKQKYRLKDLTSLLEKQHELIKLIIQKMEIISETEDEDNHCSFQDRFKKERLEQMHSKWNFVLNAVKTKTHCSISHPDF
# Experiment: Ca2+ influx (Calcium 6 fluorescence) in mouse Trpa1-expressing HEK-293T cells
# Reported Conditions: mouse Trpa1-expressing HEK-293T cells; normalized to 100 μM Indole
Quantity Measured: IC50 (nM)
Give a bare numeral; the unit nM is implied.

Output IC50 of `CCC(=N\O)/C(C)=C/c1ccc(F)cc1`
315

---

# Experimental System: mouse TRPA1 (Mus musculus, UniProt Q8BLA8)
# Construct: expressed in transfected cells; host or cells: HEK-293T
# Experiment: Ca2+ influx (Calcium 6 fluorescence) in mouse Trpa1-expressing HEK-293T cells
# Assay type: cell-based
# Reported Conditions: mouse TRPA1; normalized to 1 mM cinnamaldehyde (CAD); read-out: EC50, dose-response effects on mouse TRPA1
Quantity Measured: EC50 (µM)
Give a bare numeral; the unit µM is implied.

# lookup: mouse TRPA1 (Mus musculus, UniProt Q8BLA8) EC50, key = `O=Cc1c[nH]c2ccccc12`
189
